measurementProtocol: recombinant barcode read abundance after kanamycin selection (control-corrected) (log10(CPM+1)); higher = more efficient recombination; sequences stand for … in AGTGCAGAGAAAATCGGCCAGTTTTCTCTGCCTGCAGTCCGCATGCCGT…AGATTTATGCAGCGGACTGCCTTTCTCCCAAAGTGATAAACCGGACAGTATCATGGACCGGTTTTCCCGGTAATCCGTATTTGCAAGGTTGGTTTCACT; site = the 11-nt target;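 note: IS621 recombinase and bridge RNA in Escherichia coli cells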
// map recombinant barcode read abundance (log10) to label using bucket 1: < 0.1; bucket 2: ≥ 0.1 and < 0.3; bucket 3: ≥ 0.3

INSERT INTO results (residuecodes, grouplabel) VALUES
  ('CTCACGCCTTGGGTTCTAACCTGTTGCTT (site CACACGCCTAG)', 'bucket 2'),
  ('GCCGTAGCTTGGGTTCTAACCTGTTGCCT (site GGCGTAGCTAG)', 'bucket 2');

Exam item: assign TAGAATCCTTGGGTTCTAACCTGTTGCAA (site TAGAATCCTAT) to the correct category.
bucket 2

Next record, please: CGGAAGTCTTGGGTTCTAACCTGTTGCCT (site CGGAAGACTAG)
bucket 1

Next record, please: GCTTGGTCTTGGGTTCTAACCTGTTGCGA (site CTAGCTCCTAA)
bucket 2
